- Tested on: EPHA8
- assaySetup: concentration: 1 μM,replicates: in singlicate; n = 1;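 further: KINOMEscan kinase panel screen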
valueKind: %Inh
# answer = value followed by unit

A selection of reference data follows.
- molecule: "NC(=O)Nc1sc(-c2ccc(F)cc2)cc1C(N)=O"
  assaySystem: "EPHA8"
  %Inh: "0%"
- molecule: "COc1cc2ncn(-c3cc(OCC4CCCCC4)c(C(N)=O)s3)c2cc1OC"
  assaySystem: "EPHA8"
  %Inh: "29%"
- molecule: "Cl.Cl.NC[C@H](CC1CCCCC1)NC(=O)c1ccc(-c2ccnc3[nH]ccc23)s1"
  assaySystem: "EPHA8"
  %Inh: "36%"
- molecule: "CS(=O)(=O)c1cccc(CNc2nc(Nc3ccc4c(c3)[C@@H]3C[C@@H]4CNC3=O)ncc2C(F)(F)F)c1"
  assaySystem: "EPHA8"
  %Inh: "0%"
- molecule: "COc1cccc(C2=C(Nc3cccc(Cl)c3)C(=O)NC2=O)c1"
  assaySystem: "EPHA8"
  %Inh: "20%"

Noted %Inh for C[C@@H](Oc1cc(-n2cnc3ccc(-c4ccncc4)cc32)sc1C(N)=O)c1ccccc1Cl , tested on EPHA8: 23%

Noted %Inh for COc1ccc(Nc2nccc(N3CCC(NC(=O)c4cccc(C#N)c4)C3)n2)cc1 (centres unmarked) , tested on EPHA8: 18%

Noted %Inh for Cc1cccc(-c2nc(Nc3ccncc3)c3sccc3n2)n1 , tested on EPHA8: 2%

---

- Test system: EPHA5
- assaySetup: concentration: 1 μM,replicates: in singlicate; n = 1
Measured %Inh, listed per entry for reference.
Give your result in % as a bare value.

A selection of reference data follows.
- structure: "COC(=O)c1cccc(NC(=O)NC2CCN(c3ccnc(NCc4ccc(F)cc4)n3)CC2)c1"
  %Inh [%]: 0
- structure: "O=C(Nc1n[nH]c2cc(-c3ccco3)ccc12)C1CC1"
  %Inh [%]: 0
- structure: "Cn1ccc2ncnc(Oc3ccc(NC(=O)Nc4cncc(C(F)(F)F)c4)c(Cl)c3)c21"
  %Inh [%]: 45

Note to self: %Inh recorded for CS(=O)(=O)Nc1ccc(-c2ccnc3[nH]ccc23)cc1 was 0

Note to self: %Inh recorded for COc1cc2ncn(-c3cc(OCC4CCCCC4)c(C(N)=O)s3)c2cc1OC was 0

---

Measured %Inh, listed per entry for reference.
- Test system: EPHB2
- assaySetup: concentration: 1 μM,replicates: in singlicate; n = 1
Give your result in % as a bare value.

- compound: "OCCn1cc(-c2cnc3nnn(Cc4ccc5ncccc5c4)c3n2)cn1"
  %Inh [%]: 0

Note to self: %Inh recorded for C[C@@H](Oc1cc(-n2cnc3cc(-c4cnn(C)c4)ccc32)sc1C(N)=O)c1ccccc1Cl was 0

Note to self: %Inh recorded for Cl.Cl.NC[C@H](CC1CCCCC1)NC(=O)c1ccc(-c2ccnc3[nH]ccc23)s1 was 0

Note to self: %Inh recorded for NC(=O)c1ccc(-c2cc3ncnc(SCC(=O)O)c3s2)cc1 was 0

Note to self: %Inh recorded for COC(=O)c1cccc(NC(=O)NC2CCN(c3ccnc(NCc4ccc(F)cc4)n3)CC2)c1 was 0

Note to self: %Inh recorded for Cc1cccc(-c2nc(Nc3ccncc3)c3sccc3n2)n1 was 6

Note to self: %Inh recorded for Cn1ccc2ncnc(Oc3ccc(NC(=O)Nc4cncc(C(F)(F)F)c4)c(Cl)c3)c21 was 82
